Biological target: mSPSB1ΔSB (Mus musculus, UniProt Q9D5L7)
Construct: mSPSB1 and mSPSB4 lacking the C-terminal SOCS box region (mSPSB1ΔSB and mSPSB4ΔSB); GST (cleaved yes); made in house; host or cells: E. coli Origami B(DE3) pLysS
Sequence (Q9D5L7 1-231): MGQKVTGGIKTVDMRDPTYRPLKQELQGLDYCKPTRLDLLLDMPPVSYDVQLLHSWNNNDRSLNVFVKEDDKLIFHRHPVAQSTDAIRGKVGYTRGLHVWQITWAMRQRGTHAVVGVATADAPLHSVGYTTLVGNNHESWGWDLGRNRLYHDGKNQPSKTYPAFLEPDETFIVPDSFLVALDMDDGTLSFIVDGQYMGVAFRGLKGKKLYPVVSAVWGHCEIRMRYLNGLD
Assay: ITC of hPar-4 peptides with mSPSB1ΔSB
Format: binding, murine
Settings: 22 °C, pH 8.0, nm [sic]
Where no end group is shown, it is not given here.
measured-metric: Kd

INSERT INTO measurements (residue_codes, meas_value) VALUES
  ('AAANELANNLPGGA [[N70A]hPar-4(64–77)]', '> 50 µM');

State the measured Kd (mSPSB1ΔSB (Mus musculus, UniProt Q9D5L7)) of AAANELNANLPGGA [[N71A]hPar-4(64–77)]
> 50 µM
